# SPOT peptide array binding signal intensity values compiled below
TARGET_OF_ASSAY: SpSla1-D3
PROTOCOL_NOTES: SPOT peptide array binding signal intensity (averaged, normalized) (arbitrary units (background-subtracted, floor 0; scale differs between SH3 domains)); higher = stronger binding of the SH3 domain to the peptide
MEASUREMENT_LABEL: SPOT peptide array binding signal intensity

# BINDER, REPORTED
records = [
    ("GDHPKGPPPPPPPDE", "≤ 0"),
    ("KLSRGRYGLPLSSRP", "≤ 0"),
    ("NFFRKKLGIPRKLKR", 17.5),
    ("TSFKGRPKPPKTLKH", 2),
    ("FYHRPAPKPPVTKKV", "≤ 0"),
    ("DHPKGPPPPPPPDEK", 13),
    ("KNPRRQLQIPRQQPS", 2),
    ("LFMKGTPEFPKSGFS", 253),
    ("RRRRRPHRIERPLSN", 5),
    ("KFIPSRPAPKPPSSA", "≤ 0"),
    ("MARRRLPDRPPNGIG", 23),
    ("PSRRDSLSIPRAVDA", 1),
    ("QQEQNTPPLPPKPKS", "≤ 0"),
    ("LYEAMPPTLPHRDWK", 21),
    ("DTFLPPPPPPPSNFE", "≤ 0"),
    ("PVLPPPRSPNRPTLS", "≤ 0"),
    ("ISPPASPPPEFDFSK", 3),
    ("NILKRRPLKLEAPSK", "≤ 0"),
    ("VFQFQMPTTPISTKM", 297),
    ("RMVRRRPLRVQFSAR", 81),
    ("KTKQQKPAIPQKKSF", 1),
    ("SPLGAPPPPPHKDHL", "≤ 0"),
    ("RPPRPPPKPLHLRTE", 4),
    ("ALRRRLPVTRSKINW", 41.5),
    ("KRRAPPPVPKKPSSR", 1.5),
    ("PKMLPIPSKPTLFDL", 132),
    ("NRARYLPQNPDIIAG", "≤ 0"),
    ("SNRRPVPRRPSQPLN", 0.5),
    ("STPQTMRQAPKRPDA", 182),
    ("LKPPIGRPPKFPKSP", 2.5),
]
